TARGET OR TEST SYSTEM: Dual specificity protein kinase CLK1 (Mus musculus)
Sequence (P22518 whole entry, the tested form may be a part): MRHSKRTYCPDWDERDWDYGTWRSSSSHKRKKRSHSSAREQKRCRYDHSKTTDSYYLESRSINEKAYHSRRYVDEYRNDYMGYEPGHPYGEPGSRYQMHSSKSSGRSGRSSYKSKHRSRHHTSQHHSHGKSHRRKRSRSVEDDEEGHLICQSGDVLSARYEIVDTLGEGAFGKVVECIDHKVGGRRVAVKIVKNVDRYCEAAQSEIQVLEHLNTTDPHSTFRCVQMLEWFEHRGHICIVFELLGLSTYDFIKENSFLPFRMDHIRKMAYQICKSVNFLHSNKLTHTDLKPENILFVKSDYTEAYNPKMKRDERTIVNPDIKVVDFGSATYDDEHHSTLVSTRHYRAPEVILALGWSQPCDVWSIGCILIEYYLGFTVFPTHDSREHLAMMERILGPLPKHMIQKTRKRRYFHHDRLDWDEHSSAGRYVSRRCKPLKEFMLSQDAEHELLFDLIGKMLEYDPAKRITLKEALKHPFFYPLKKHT
TEST NAME: Inhibition of GST-fused mouse recombinant CLK1 expressed in Escherichia coli using GRSRSRSRSRSR peptide as substrate incubated for 30 mins in presence of ATP by scintillation counting method
pIC50: −log10 of the molar value.
Label True when pIC50 is at or above 7; anything below gets False.

| CHEMICAL STRUCTURE | CLASSIFICATION |
| --- | --- |
| COc1cccc(/C=C2\N=C(Nc3ccccc3)NC2=O)c1 | False |
| O=C1NC(Nc2ccc(-c3ccccc3)cc2)=N/C1=C\c1ccc2c(c1)OCO2 | False |
| O=C1NC(Nc2cccc(F)c2)=N/C1=C\c1ccc2c(c1)OCO2 | True |
| O=C1NC(Nc2ccc(Oc3ccccc3)cc2)=N/C1=C\c1ccc2c(c1)OCO2 | False |
| CCCCCCc1ccc(NC2=N/C(=C\c3ccc(O)c(OC)c3)C(=O)N2)cc1 | False |
| CN1CCN(c2ccc(NC3=N/C(=C\c4ccc5c(c4)OCO5)C(=O)N3)cc2)CC1 | True |
| O=C1NC(N2CCCCC2)=N/C1=C\c1ccc2c(c1)OCO2 | False |
| Cc1ccc(C)c(NC2=N/C(=C\c3ccc4c(c3)OCO4)C(=O)N2)c1 | True |
| [2H]C1([2H])Oc2ccc(/C=C3\N=C(Nc4ccccc4)NC3=O)cc2O1 | True |
| C/C(=C1/N=C(Nc2ccccc2)NC1=O)c1ccc2c(c1)OCO2 | False |

* * *

TARGET OR TEST SYSTEM: UniProt:Q92630
Sequence (Q92630 whole entry): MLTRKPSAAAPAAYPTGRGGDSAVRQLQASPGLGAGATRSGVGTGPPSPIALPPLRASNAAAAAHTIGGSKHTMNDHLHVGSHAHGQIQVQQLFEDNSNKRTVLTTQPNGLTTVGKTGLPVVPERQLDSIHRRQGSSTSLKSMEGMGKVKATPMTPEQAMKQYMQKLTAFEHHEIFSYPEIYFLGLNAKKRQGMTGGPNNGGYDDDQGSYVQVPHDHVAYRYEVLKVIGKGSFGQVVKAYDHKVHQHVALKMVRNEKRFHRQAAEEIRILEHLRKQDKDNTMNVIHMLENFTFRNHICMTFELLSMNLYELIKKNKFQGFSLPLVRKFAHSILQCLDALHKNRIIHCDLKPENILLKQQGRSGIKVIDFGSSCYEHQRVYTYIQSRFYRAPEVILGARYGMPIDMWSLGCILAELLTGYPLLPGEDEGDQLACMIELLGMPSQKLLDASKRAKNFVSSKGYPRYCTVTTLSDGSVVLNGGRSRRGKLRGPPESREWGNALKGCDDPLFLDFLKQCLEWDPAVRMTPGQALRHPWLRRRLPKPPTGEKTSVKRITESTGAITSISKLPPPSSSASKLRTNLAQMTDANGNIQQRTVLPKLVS
TEST NAME: Inhibition of GST-fused human recombinant DYRK2 expressed in Escherichia coli using GRSRSRSRSRSR peptide as substrate incubated for 30 mins in presence of ATP by scintillation counting method
pIC50: −log10 of the molar value.

| COMPOUND | TARGET OR TEST SYSTEM | VALUE MODIFIER | pIC50 |
| --- | --- | --- | --- |
| CCCSC1=N/C(=C\c2ccc3c(c2)OCO3)C(=O)N1C | UniProt:Q92630 | = | 6.48 |
| O=C1NC(N2CCCCC2)=N/C1=C\c1ccc2c(c1)OCO2 | UniProt:Q92630 | = | 6.66 |
| CCCCCCc1ccc(NC2=N/C(=C\c3ccc(O)c(OC)c3)C(=O)N2)cc1 | UniProt:Q92630 | ≤ | 5.00 |
| O=C1NC(Nc2ccc(O)cc2)=N/C1=C\c1ccc2c(c1)OCO2 | UniProt:Q92630 | = | 7.96 |
| CN1CCN(c2ccc(NC3=N/C(=C\C4=COc5ccccc5O4)C(=O)N3)cc2)CC1 | UniProt:Q92630 | = | 8.10 |
| CCCNC1=N/C(=C\c2ccc3c(c2)OCO3)C(=O)N1C | UniProt:Q92630 | = | 7.02 |
| Cc1ccc(NC2=N/C(=C\c3ccc4c(c3)OCO4)C(=O)N2)c(C)c1 | UniProt:Q92630 | = | 7.12 |
| O=C1NC(Nc2ccc(N3CCNCC3)cc2)=N/C1=C\c1ccc2c(c1)OC=CO2 | UniProt:Q92630 | = | 6.46 |
| O=C1NC(N2CCCC2)=N/C1=C\c1ccc2c(c1)OCO2 | UniProt:Q92630 | = | 6.03 |
| O=C1NC(Nc2ccc(O)c(F)c2)=N/C1=C\c1ccc2c(c1)OCO2 | UniProt:Q92630 | = | 7.96 |
| O=C1NC(Nc2ccccn2)=N/C1=C\c1ccc2c(c1)OCO2 | UniProt:Q92630 | = | 7.48 |
| CCCCCCc1ccc(NC2=N/C(=C\c3ccc4c(c3)OCO4)C(=O)N2)cc1 | UniProt:Q92630 | = | 5.02 |
| Cc1ccc(NC2=N/C(=C\c3ccc4c(c3)OCO4)C(=O)N2)cc1 | UniProt:Q92630 | = | 7.47 |
| CN1CCN(c2ccc(NC3=N/C(=C\c4ccc5c(c4)OCO5)C(=O)N3)cc2)CC1 | UniProt:Q92630 | = | 7.30 |
| O=C1NC(Nc2ccc(-c3ccccc3)cc2)=N/C1=C\c1ccc2c(c1)OCO2 | UniProt:Q92630 | = | 5.38 |
| CCNC1=N/C(=C\c2ccc3c(c2)OCO3)C(=O)N1 | UniProt:Q92630 | = | 6.72 |
| Cn1cc(Cc2ccc3c(c2)OCO3)nc1N | UniProt:Q92630 | < | 5.00 |
| O=C1NC(Nc2ccccc2)=N/C1=C\c1ccc(O)c(O)c1 | UniProt:Q92630 | = | 6.57 |
| O=C1NC(N2CCC(N3CCCCC3)CC2)=N/C1=C\c1ccc2c(c1)OCO2 | UniProt:Q92630 | = | 5.85 |
| CCSC1=N/C(=C\c2ccc3c(c2)OCO3)C(=O)N1 | UniProt:Q92630 | = | 7.49 |
| CN1C(=O)/C(=C/c2ccc3c(c2)OCO3)N=C1N [LEUCETTAMINE B] | UniProt:Q92630 | = | 6.37 |
| O=C1NC(Nc2ccc(F)cc2)=N/C1=C\c1ccc2c(c1)OCO2 | UniProt:Q92630 | = | 7.46 |
| CCCNC1=N/C(=C\c2ccc3c(c2)OCO3)C(=O)N1c1ccccc1 | UniProt:Q92630 | = | 5.14 |
| CCCCCOc1ccc(NC2=N/C(=C\c3ccc4c(c3)OCO4)C(=O)N2)cc1 | UniProt:Q92630 | = | 6.29 |

* * *

Each item that follows carries a reported IC50.
TARGET OR TEST SYSTEM: Dual specificity protein kinase CLK2 (Mus musculus, UniProt O35491)
Sequence (O35491 whole entry, the tested form may be a part): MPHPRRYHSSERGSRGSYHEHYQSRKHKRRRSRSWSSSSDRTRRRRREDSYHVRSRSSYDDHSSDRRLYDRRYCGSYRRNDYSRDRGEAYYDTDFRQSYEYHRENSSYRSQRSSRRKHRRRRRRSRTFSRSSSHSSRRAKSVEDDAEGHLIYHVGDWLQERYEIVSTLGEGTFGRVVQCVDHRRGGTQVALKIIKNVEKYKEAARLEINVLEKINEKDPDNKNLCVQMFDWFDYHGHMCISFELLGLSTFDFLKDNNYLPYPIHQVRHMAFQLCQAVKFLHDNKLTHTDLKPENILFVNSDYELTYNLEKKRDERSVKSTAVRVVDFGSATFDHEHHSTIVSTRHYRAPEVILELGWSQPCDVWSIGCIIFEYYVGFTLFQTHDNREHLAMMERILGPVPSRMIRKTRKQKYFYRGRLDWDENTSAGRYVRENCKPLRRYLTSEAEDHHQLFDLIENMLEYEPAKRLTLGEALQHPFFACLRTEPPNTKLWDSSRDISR
TEST NAME: Inhibition of mouse recombinant GST-fused CLK2 expressed in Escherichia coli using GRSRSRSRSRSR peptide as substrate incubated for 30 mins in presence of ATP by scintillation counting method

| CHEMICAL STRUCTURE | IC50 |
| --- | --- |
| CSC1=N/C(=C\c2ccc3c(c2)OCO3)C(=O)N1 | 250 nM |
| C/C(=C1/N=C(Nc2ccccc2)NC1=O)c1ccc2c(c1)OCO2 | > 10000 nM |
| O=C1NC(Nc2ccccc2)=N/C1=C\c1ccc(O)c(O)c1 | 1500 nM |
| COc1cc(/C=C2\N=C(Nc3ccc(N4CCNCC4)cc3)NC2=O)ccc1O | 3500 nM |
| COc1cc(/C=C2\N=C(Nc3ccc(N4CCCCC4)cc3)NC2=O)ccc1O | > 10000 nM |
| O=C1NC(Nc2ccc(Oc3ccccc3)cc2)=N/C1=C\c1ccc2c(c1)OCO2 | > 10000 nM |
| [2H]C1([2H])Oc2ccc(/C=C3\N=C(Nc4ccccc4)NC3=O)cc2O1 | 170 nM |
| O=C1NC(Nc2ccc(N3CCCCC3)cc2)=N/C1=C\c1ccc2c(c1)OCO2 | > 10000 nM |
| COc1ccc(/C=C2\N=C(Nc3ccccc3)NC2=O)cc1O | ≥ 10000 nM |
| O=C1NC(Nc2ccccc2)=N/C1=C\c1ccc(F)cc1 | > 10000 nM |
| O=C1NC(Nc2ccccc2)=N/C1=C\c1ccc2c(c1)OCCO2 | 880 nM |
| CCCNC1=N/C(=C\c2ccc3c(c2)OCO3)C(=O)N1C | 560 nM |
| Cc1ccc(C)c(NC2=N/C(=C\c3ccc4c(c3)OCO4)C(=O)N2)c1 | 180 nM |
| CCCSC1=N/C(=C\c2ccc3c(c2)OCO3)C(=O)N1C | 320 nM |
| O=C1NC(N2CCC(N3CCCCC3)CC2)=N/C1=C\c1ccc2c(c1)OCO2 | 3200 nM |
| O=C1NC(N2CCCC2)=N/C1=C\c1ccc2c(c1)OCO2 | 2300 nM |
| Cc1ccc(NC2=N/C(=C\c3ccc4c(c3)OCO4)C(=O)N2)c(C)c1 | 1100 nM |
| CN1C(=O)/C(=C/c2ccc3c(c2)OCO3)N=C1N | 940 nM |
| COc1ccc(/C=C2\N=C(Nc3ccccc3)NC2=O)cc1 | > 10000 nM |
| CCCNC1=N/C(=C\c2ccc3c(c2)OCO3)C(=O)N1CCC | ≥ 10000 nM |
| CN(C1=N/C(=C\c2ccc3c(c2)OCO3)C(=O)N1)c1ccccc1 | 1200 nM |
| O=C1NC(Nc2ccccc2)=N/C1=C\c1ccc2c(c1)CCCO2 | 1800 nM |
| O=C1NC(N2CCCCC2)=N/C1=C\c1ccc2c(c1)OCO2 | 1300 nM |
| O=C1NC(Nc2ccc(-c3ccccc3)cc2)=N/C1=C\c1ccc2c(c1)OCO2 | > 10000 nM |
| CCCNC1=N/C(=C\c2ccc3c(c2)OCO3)C(=O)N1c1ccccc1 | 2500 nM |
| CCCSC1=N/C(=C\c2ccc3c(c2)OCO3)C(=O)N1 | 110 nM |
| COc1cccc(/C=C2\N=C(Nc3ccccc3)NC2=O)c1 | > 10000 nM |
| CNC1=N/C(=C\c2ccc3c(c2)OCO3)C(=O)N1 | 530 nM |
| CCSC1=N/C(=C\c2ccc3c(c2)OCO3)C(=O)N1C | 420 nM |
| Cc1ccc(NC2=N/C(=C\c3ccc4c(c3)OCO4)C(=O)N2)cc1C | 2200 nM |
| CCSC1=N/C(=C\c2ccc3c(c2)OCO3)C(=O)N1 | 120 nM |
| CN1C(=O)/C(=C/c2ccc3c(c2)OCO3)N=C1Nc1ccccc1 | 500 nM |
| O=C1NC(Nc2ccc(N3CCNCC3)cc2)=N/C1=C\c1ccc2c(c1)OCO2 | 1800 nM |
| O=C1NC(NC2CCNCC2)=N/C1=C\c1ccc2c(c1)OCO2 | 900 nM |
| O=C1NC(Nc2ccc(F)cc2)=N/C1=C\c1ccc2c(c1)OCO2 | 260 nM |
| O=C1NC(Nc2ccc(O)cc2)=N/C1=C\c1ccc2c(c1)OCO2 | 83 nM |
| NC1=N/C(=C\c2ccc3c(c2)OCO3)C(=O)N1 | 180 nM |
| CCCCCOc1ccc(NC2=N/C(=C\c3ccc4c(c3)OCO4)C(=O)N2)cc1 | 3100 nM |
| CN1CCN(c2ccc(NC3=N/C(=C\C4=COc5ccccc5O4)C(=O)N3)cc2)CC1 | 67 nM |

Attribution: ChEMBL document CHEMBL5126517
